target: HLA-B*15:01; assay: IEDB peptide-MHC binding, purified MHC/direct/fluorescence; filed as Kd, often an IC50 or EC50 that approximates it; bounds were set here for any values at or beyond the usual limits of such assays; conditions: source organism: Vibrio cholerae
pKd: −log10 of the molar value.
value_kind: pKd

Prompt: Entry `RPRIRLSAP` : reported pKd = ?
Completion: ≤ 4.70

---

target: HLA-B*39:01; assay: IEDB peptide-MHC binding, purified MHC/competitive/fluorescence; filed as Kd, often an IC50 or EC50 that approximates it; bounds were set here for any values at or beyond the usual limits of such assays; conditions: source organism: Neembucu hantavirus
pKd: −log10 of the molar value.
value_kind: pKd

Prompt: What pKd value was documented for this sequence, `ILYMLSWGK` ?
Completion: ≤ 4.70
